B1: HDV Ribozyme (parent)
chain: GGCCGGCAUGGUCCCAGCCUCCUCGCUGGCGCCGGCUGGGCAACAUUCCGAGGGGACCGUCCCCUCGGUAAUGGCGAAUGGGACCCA

Variants of: B1
test-description: self-cleavage, relative activity (ratio to wild type); higher = more cleavage; co-transcriptional
# self-cleavage >= 0.09 gives True, anything below gives False

Lookup: Please tell me: is the variant G2U C13G at or over 0.09 in terms of self-cleavage?
Found: False

Lookup: Please tell me: is the variant C75U G82U at or over 0.09 in terms of self-cleavage?
Found: True

Lookup: Please tell me: is the variant G74A A83C at or over 0.09 in terms of self-cleavage?
Found: True

Lookup: Please tell me: is the variant A45C G53U at or over 0.09 in terms of self-cleavage?
Found: True

Lookup: Please tell me: is the variant C13G A51U at or over 0.09 in terms of self-cleavage?
Found: False

Lookup: Please tell me: is the variant C15G C19A at or over 0.09 in terms of self-cleavage?
Found: False

Lookup: Please tell me: is the variant U27G C63U at or over 0.09 in terms of self-cleavage?
Found: True

Lookup: Please tell me: is the variant C4A C41U at or over 0.09 in terms of self-cleavage?
Found: True

Lookup: Please tell me: is the variant A56C G68U at or over 0.09 in terms of self-cleavage?
Found: True

Lookup: Please tell me: is the variant C24U G29U at or over 0.09 in terms of self-cleavage?
Found: False

Lookup: Please tell me: is the variant G38C G52U at or over 0.09 in terms of self-cleavage?
Found: True
